Experiment Summary: Bleeding assay, Surgicutt Jr. device (Example 45)
Assay type: in vivo, cynomolgus monkeys
Design: unit not given here
Experimental Parameters: day 64; escalating dose regimen
Parameter: bleeding time
Number, no unit, nothing else.

Substance: ISIS 416850: MOE gapmer, nucleobases 1275 to 1318 of SEQ ID NO: 1 (Table 8) (antisense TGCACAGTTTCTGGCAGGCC; MOE gapmer, wing and gap sizes not given here)
bleeding time: 201

Value of bleeding time reported for the substance ISIS 416838: MOE gapmer, nucleobases 1018 to 1042 of SEQ ID NO: 1 (Table 6) (antisense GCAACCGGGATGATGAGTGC; MOE gapmer, wing and gap sizes not given here) is 131

Field bleeding time (entry ISIS 417002: MOE gapmer, nucleobases 1275 to 1318 of SEQ ID NO: 1 (Table 8) (antisense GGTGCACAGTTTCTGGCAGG; MOE gapmer, wing and gap sizes not given here) ) reads 146

Record summary for ISIS 416864: MOE gapmer, nucleobases 1275 to 1318 of SEQ ID NO: 1 (Table 8) (antisense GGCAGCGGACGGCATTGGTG; MOE gapmer, wing and gap sizes not given here) : reported bleeding time = 218

Please fill in: bleeding time reported for ISIS 416858: MOE gapmer, nucleobases 1275 to 1318 of SEQ ID NO: 1 (Table 8) (antisense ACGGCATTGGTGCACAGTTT; MOE gapmer, wing and gap sizes not given here) = 113

----------
Experiment Summary: Kidney function, urine protein to creatinine ratio in cynomolgus monkeys (Example 45)
Type: in vivo
Experimental Parameters: Day 84
Parameter: urine protein to creatinine ratio
The response must contain the number and no unit.

Answered cases to consult:
Substance: ISIS 416858: MOE gapmer, nucleobases 1275 to 1318 of SEQ ID NO: 1 (Table 8) (antisense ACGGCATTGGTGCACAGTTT; MOE gapmer, wing and gap sizes not given here)
urine protein to creatinine ratio: 0.07
--
Substance: ISIS 416850: MOE gapmer, nucleobases 1275 to 1318 of SEQ ID NO: 1 (Table 8) (antisense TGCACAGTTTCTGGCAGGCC; MOE gapmer, wing and gap sizes not given here)
urine protein to creatinine ratio: 0.12
--
Substance: ISIS 416838: MOE gapmer, nucleobases 1018 to 1042 of SEQ ID NO: 1 (Table 6) (antisense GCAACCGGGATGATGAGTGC; MOE gapmer, wing and gap sizes not given here)
urine protein to creatinine ratio: 0.13
--
Substance: ISIS 416864: MOE gapmer, nucleobases 1275 to 1318 of SEQ ID NO: 1 (Table 8) (antisense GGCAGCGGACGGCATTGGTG; MOE gapmer, wing and gap sizes not given here)
urine protein to creatinine ratio: 0.34

Turning now to a further record.
The reported urine protein to creatinine ratio of the substance ISIS 417002: MOE gapmer, nucleobases 1275 to 1318 of SEQ ID NO: 1 (Table 8) (antisense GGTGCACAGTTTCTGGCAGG; MOE gapmer, wing and gap sizes not given here) was 0.24

----------
Reported pIC50 values follow for various substances
Tested on: human Factor 11 mRNA
Experiment Summary: Dose-dependent inhibition of human Factor 11 in HepB3 cells, lipofectin (Example 7)
Assay type: cell-based
Protocol: Cells were plated at a density of 4,000 cells per well and transfected using lipofectin reagent with 2.3 nM, 4.7 nM, 9.4 nM, 18.75 nM, 37.5 nM, and 75 nM concentrations of antisense oligonucleotide, as specified in Table 14. After a treatment period of approximately 16 hours, RNA was isolated from the cells and human Factor 11 mRNA levels were measured by quantitative real-time PCR. […] Factor 11 mRNA levels were adjusted according to total RNA content, as measured by RIBOGREEN. […]
Quick note: pIC50 values are minus log10 of concentrations in mol/L.

As a guide, the following entries are already answered.
Substance: 416892 (antisense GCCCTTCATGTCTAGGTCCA; 3-14-3 chimeric gapmer, further chemistry not given here) [compound 416892]
Measured: 8.05
--
Substance: 417002 (antisense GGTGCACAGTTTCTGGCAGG; 2-13-5 gapmer chemistry, further chemistry not given here) [compound 417002]
Measured: 7.89

Pending substance:
Lab note: substance 416925 (antisense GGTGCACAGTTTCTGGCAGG; 3-14-3 gapmer chemistry, further chemistry not given here) [compound 416925] tested on human Factor 11 mRNA; recorded pIC50 was 7.92
